tested on: MS2 coat protein; assay: apparent KD of MS2 coat protein; designed switch direction (-1 OFF switch, 1 ON switch): -1; higher = weaker reporter binding; details: input ligand: FMN 200 uM
Returns one of Satisfied or Not satisfied; Satisfied when apparent KD of MS2 coat protein is >= 90 nM.

Check the entry AAACAAGCGUGAGGCUCGUCUUAAAAAGCUUCAUGAAAAACAUGAGGAUCACCCAUGUAAAAUGAUCGAAAGAUCAA [JL turnoff v2 28] (Eterna round: R96, puzzle: Sensor v2, turn-off variant 2) : does apparent KD of MS2 coat protein equal or exceed 90 nM?
Not satisfied

###

Listed here are sequences together with their documented apparent KD of MS2 coat protein.
tested on: MS2 coat protein; assay: apparent KD of MS2 coat protein; designed switch direction (-1 OFF switch, 1 ON switch): 1; higher = weaker reporter binding; conditions: input ligand: none
Kindly provide the numeric value in nM only, without the unit symbol.

SEQUENCE CODE	MEASURE UNIT	REPORTED MEASUREMENT
GGCCAGAGUCAAGGAUAUGCUACCGUUUCGGUAGCAGAAGGUGAUCACAUGAGGAUCACCCAUGUUUACUGGGAGACCAUGGCC [JL SSNG1 3.69] (Eterna round: R96, puzzle: Same State NG 1)	nM	112
CCGGCAAGUAUAGGAUAUCCCGCUACAGAAGCGGGAGAAGGGUGCCAAACAUGAGGAUCACCCAUGUACACCGGAAAUAUAUAA [Soorve] (Eterna round: R96, puzzle: Same State NG 1)	nM	34.6

Could you now consider this next sequence?
GET /values?readout=apparent KD of MS2 coat protein&item= GCCAGUGCGAAACUCACAUGAGGAUCACCCAUGUGCGUUGAGUAGGAUAUCCGGCUACUCGAGGCGGAGAAGGACUGGGUACUG [Eternabot solution 14] (Eterna round: R96, puzzle: Same State NG 3)
17.3

###

// apparent KD of MS2 coat protein lookup, one value per entry
tested on: MS2 coat protein; assay: apparent KD of MS2 coat protein; designed switch direction (-1 OFF switch, 1 ON switch): 1; higher = weaker reporter binding; conditions: Eterna round: R95; input ligand: microRNA oligo, concentration not stated
Expressed in nM, but write only the number.

SEQUENCE CODE	REPORTED MEASUREMENT
CUGCAACAUGAGGAUCACCCAUGUAACCCGGUUACAGGAUAUGUGAUGGUGAUCGACAUGACAGAAGGGUGAUUGG [Indiinbi] (puzzle: Same State 1)	21.5
AUUAAACAUGAGGAUCACCCAUGUCAACAAAGUCGAGGAUAUGGGCAAAUAAAAUAAGAACCAGAAGGCGAAUAAU [salish99_ss1_r3_048] (puzzle: Same State 1)	357
UAAACUAGUUAUAGUGUAAUGCAUAUUAUACAUGAGGAUCACCCAUGUGAUGGUUGGUAUGAUUUUGUUCGUCUUAA [JR_SHM208A_Sub079] (puzzle: Sensor for hsa-mir-208a)	61.9
GUGGCCCAGGCACAGGAUAUGUUUCUCGUAACAUGAGGAUCACCCAUGUGCCUAUGAGAUUUAAUGCAGAAGGGUGCACGCCACU [Mat - Same State 2 - Mod of UCT - D79] (puzzle: Same State 2)	95.8

Proceeding to the next sequence to report its apparent KD of MS2 coat protein.
Can you share its apparent KD of MS2 coat protein? I mean this sequence: UACCAACAUAUAGAACAAGCGUGCUCGUCACAUGAGGAUCACCCAUGUCUAAGCGCUGAACCUGCAUCCUCAGCGCC [Oniste] (puzzle: Sensor for hsa-mir-208a)
26.5
